measurement-target: aldosterone synthase (CYP11B2) (Homo sapiens, UniProt P19099)
Sequence (P19099 25-503): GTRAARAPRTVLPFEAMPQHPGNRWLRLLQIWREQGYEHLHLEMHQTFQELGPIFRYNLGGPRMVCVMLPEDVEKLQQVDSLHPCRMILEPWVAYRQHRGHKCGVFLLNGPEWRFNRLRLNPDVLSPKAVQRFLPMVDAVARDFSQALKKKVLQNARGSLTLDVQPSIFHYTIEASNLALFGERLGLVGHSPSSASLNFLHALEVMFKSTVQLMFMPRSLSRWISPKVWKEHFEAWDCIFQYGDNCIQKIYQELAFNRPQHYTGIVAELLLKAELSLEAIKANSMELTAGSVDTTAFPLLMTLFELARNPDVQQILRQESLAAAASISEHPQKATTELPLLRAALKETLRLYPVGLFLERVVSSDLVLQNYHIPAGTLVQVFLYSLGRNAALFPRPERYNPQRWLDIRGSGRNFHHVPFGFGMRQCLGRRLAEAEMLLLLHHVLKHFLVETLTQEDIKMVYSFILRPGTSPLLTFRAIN
assay-remarks: in vitro aldosterone synthase inhibition, aldosterone production in Ang II-stimulated NCI-H295R cells
run-conditions: read-out: AS IC50
pIC50: −log10 of the molar value.
Threshold check on pIC50: at or above 7 gives MET, strictly below gives NOT MET.

Solved cases below.
# compound, assigned-class
data = [
    ("CC(C)OC(=O)c1cncn1C1CCCc2ccc(N(C)S(C)(=O)=O)cc21 (centres unmarked)", "NOT MET"),
    ("CC(C)OC(=O)c1cncn1C1CCCc2cc(C3CC3)ccc21 (centres unmarked)", "NOT MET"),
    ("CCc1cncn1C1CCC(C)(C)c2ccccc21 (single isomer, unassigned) [Compound 8]", "MET"),
]

*Q* Assess whether reported pIC50 for CC1(C)Cc2ccccc2C1n1cncc1C(=O)NCCO (centres unmarked) sits at 7 or higher.
*A* MET
